biological target: Transient receptor potential cation channel subfamily M member 8 (Rattus norvegicus); assay: Antagonist activity at recombinant rat TRPM8 stably expressed in HEK293 cells assessed as inhibition of icilin-induced intracellular calcium level by Fluo-4NW probe based fluorescence assay; assay type: cell-based
Sequence (Q8R455 whole entry): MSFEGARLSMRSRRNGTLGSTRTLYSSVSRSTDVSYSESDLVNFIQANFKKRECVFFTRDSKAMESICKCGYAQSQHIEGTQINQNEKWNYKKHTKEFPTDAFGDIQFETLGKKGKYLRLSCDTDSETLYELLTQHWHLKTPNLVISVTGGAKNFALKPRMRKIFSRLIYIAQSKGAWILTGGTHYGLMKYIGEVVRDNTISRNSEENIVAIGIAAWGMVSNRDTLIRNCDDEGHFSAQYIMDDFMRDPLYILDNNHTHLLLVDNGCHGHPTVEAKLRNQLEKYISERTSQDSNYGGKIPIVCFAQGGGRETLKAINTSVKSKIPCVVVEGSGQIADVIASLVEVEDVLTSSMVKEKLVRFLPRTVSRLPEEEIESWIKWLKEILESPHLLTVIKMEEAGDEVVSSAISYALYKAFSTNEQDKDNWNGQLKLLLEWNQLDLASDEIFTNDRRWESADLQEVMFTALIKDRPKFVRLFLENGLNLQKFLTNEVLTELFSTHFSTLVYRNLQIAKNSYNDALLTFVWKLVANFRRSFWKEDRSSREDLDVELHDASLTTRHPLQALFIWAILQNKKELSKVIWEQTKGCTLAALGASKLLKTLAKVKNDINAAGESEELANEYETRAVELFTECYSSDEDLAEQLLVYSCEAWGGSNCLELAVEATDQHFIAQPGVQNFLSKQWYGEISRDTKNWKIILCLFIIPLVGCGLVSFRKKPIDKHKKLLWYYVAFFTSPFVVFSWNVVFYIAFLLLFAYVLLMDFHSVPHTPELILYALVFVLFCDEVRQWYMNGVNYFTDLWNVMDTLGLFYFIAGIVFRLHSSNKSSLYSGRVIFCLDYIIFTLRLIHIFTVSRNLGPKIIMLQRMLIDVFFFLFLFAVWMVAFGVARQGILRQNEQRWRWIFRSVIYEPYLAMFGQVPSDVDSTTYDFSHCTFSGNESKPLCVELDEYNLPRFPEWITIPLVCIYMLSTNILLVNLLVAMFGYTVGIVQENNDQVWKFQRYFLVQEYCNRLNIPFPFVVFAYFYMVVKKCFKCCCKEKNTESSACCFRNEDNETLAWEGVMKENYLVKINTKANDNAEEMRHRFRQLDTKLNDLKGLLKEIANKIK
MEASURE: pIC50
The meaning of pIC50 here: minus log10 of the concentration in molar units.

Query :: Could you share which pIC50 value was measured for `CC(C)[C@@H]1CC[C@@H](C)C[C@H]1NC(=O)c1ccc(-c2ccccc2)cc1` ?
Result :: 6.28

---

Catalogue of pIC50 values
biological target: Transient receptor potential cation channel subfamily M member 8 (Homo sapiens); assay: Antagonist activity at recombinant human TRPM8 transiently expressed in HEK293 cells assessed as inhibition of menthol-induced calcium flux by whole-cell patch-clamp electrophysiological method; type: cell-based
Sequence (Q7Z2W7 whole entry): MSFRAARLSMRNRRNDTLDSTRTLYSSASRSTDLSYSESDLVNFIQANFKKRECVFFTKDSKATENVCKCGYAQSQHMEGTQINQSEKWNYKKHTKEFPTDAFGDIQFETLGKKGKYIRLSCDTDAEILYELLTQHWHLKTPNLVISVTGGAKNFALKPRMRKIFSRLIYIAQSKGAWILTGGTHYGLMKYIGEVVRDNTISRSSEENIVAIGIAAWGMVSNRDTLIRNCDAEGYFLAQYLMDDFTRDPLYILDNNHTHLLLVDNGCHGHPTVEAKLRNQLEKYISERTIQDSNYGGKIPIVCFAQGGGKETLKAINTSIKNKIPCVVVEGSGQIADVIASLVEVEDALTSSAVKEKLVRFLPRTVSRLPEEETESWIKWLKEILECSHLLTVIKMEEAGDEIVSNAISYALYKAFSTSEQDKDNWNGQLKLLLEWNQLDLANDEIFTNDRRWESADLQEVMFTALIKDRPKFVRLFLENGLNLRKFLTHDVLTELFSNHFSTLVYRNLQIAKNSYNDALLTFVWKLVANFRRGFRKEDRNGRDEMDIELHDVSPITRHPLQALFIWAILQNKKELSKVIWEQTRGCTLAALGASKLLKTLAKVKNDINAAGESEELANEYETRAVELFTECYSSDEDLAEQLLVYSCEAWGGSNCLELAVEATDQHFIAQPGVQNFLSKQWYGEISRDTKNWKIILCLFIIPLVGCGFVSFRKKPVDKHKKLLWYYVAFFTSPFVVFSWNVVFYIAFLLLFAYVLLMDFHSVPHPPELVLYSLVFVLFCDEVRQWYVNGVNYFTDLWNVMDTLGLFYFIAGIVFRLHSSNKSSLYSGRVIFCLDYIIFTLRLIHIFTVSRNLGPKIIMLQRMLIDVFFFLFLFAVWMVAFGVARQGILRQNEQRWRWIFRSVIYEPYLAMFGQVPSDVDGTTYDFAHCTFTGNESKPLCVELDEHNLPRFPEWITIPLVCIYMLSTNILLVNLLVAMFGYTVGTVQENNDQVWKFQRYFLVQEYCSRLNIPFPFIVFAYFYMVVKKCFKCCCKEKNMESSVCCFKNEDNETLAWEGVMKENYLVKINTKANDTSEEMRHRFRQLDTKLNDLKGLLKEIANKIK
The meaning of pIC50 here: minus log10 of the concentration in molar units.

{"TEST_SMILES": "C=C1[C@H](C)CC[C@@H](C(C)C)[C@@H]1OC(=O)c1ccccc1", "QUANTITATIVE_RESULT": 5.70}

Consider the record given below.
Query :: Could you share which pIC50 value was measured for `CC(C)[C@@H]1CC[C@@H](C)C[C@H]1NC(=O)c1ccc(-c2ccccc2)cc1` ?
Result :: 6.15
